# Target or system: T1, monomeric SARS-CoV-2 receptor binding domain (RBD-H6) (SARS-CoV-2, UniProt P0DTC2 319-541)
# T1 construct: Made in HEK293-6E cells; also called RBD Spike; monomeric RBD
# Protocol notes: ELISA screen
Quantity kind: Mean normalized OD (OD)
Please state the figure in OD; there is no need to write the unit.

A selection of reference data follows.
Provide Mean normalized OD value for the following binder: Cd209d CRD-mouse IgG2a-Fc fusion protein (Fc fusion) FFNGSCYFFSKSQRNWHNSTTACQELGAQLVIIETDEEQTFLQQTSKARGPTWMGLSDMHNEATWHWVDGSPLSPSFTRYWNRGEPNNVGDEDCAEFSGDGWNDLSCDKLLFWICKGGGSGGGSGGGS
0.019

Provide Mean normalized OD value for the following binder: Clec7a CRD-mouse IgG2a-Fc fusion protein (Fc fusion) HGKSCYLFSFSGNSWYGSKRHCSQLGAHLLKIDNSKEFEFIESQTSSHRINAFWIGLSRNQSEGPWFWEDGSAFFPNSFQVRNTAPQESLLHNCVWIHGSEVYNQICNTSSYSICEGGGSGGGSGGGS
0.004

Provide Mean normalized OD value for the following binder: Clec1b CRD-mouse IgG2a-Fc fusion protein (Fc fusion) HGDSCYGFFRRNLTWEESKQYCTEQNATLVKTASQSTLDYIAERITSVRWIGLSRQNSKKDWMWEDSSVLRKNGINLSGNTEENMNCAYLHNGKIHPASCKERHYLICEGGGSGGGSGGGS
0.03

Provide Mean normalized OD value for the following binder: Clec3a CRD-mouse IgG2a-Fc fusion protein (Fc fusion) VHKKCYLASEGLKHYHEANEDCISKGGTLVVPRNSDEINALRDYGKRSLPGVNDFWLGINDMVTEGKFLDVHGFAVSFLNWDRAQPSGGKRENCVLFSQSAQGKWSDEACRSSKRYICEGGGSGGGSGGGS
0.039

Alright, here's another binder for you.
Provide Mean normalized OD value for the following binder: Siglec1 CRD-mouse IgG2a-Fc fusion protein (Fc fusion) TWGVSSPKNVQGLSGSCLLIPCIFSYPADVPVSNGITAIWYYDYSGKRQVVIHSGDPKLVDKRFRGRAELMGNMDHKVCNLLLKDLKPEDSGTYNFRFEISDSNRWLDVKGTTVTVTGGGSGGGSGGGS
0
